SUBJECT_OF_TEST: EGFR (Homo sapiens, UniProt P00533)
Construct: Kinases are expressed as either kinase domains or full length constructs; made in house
Sequence (P00533 25-1210, species assumed): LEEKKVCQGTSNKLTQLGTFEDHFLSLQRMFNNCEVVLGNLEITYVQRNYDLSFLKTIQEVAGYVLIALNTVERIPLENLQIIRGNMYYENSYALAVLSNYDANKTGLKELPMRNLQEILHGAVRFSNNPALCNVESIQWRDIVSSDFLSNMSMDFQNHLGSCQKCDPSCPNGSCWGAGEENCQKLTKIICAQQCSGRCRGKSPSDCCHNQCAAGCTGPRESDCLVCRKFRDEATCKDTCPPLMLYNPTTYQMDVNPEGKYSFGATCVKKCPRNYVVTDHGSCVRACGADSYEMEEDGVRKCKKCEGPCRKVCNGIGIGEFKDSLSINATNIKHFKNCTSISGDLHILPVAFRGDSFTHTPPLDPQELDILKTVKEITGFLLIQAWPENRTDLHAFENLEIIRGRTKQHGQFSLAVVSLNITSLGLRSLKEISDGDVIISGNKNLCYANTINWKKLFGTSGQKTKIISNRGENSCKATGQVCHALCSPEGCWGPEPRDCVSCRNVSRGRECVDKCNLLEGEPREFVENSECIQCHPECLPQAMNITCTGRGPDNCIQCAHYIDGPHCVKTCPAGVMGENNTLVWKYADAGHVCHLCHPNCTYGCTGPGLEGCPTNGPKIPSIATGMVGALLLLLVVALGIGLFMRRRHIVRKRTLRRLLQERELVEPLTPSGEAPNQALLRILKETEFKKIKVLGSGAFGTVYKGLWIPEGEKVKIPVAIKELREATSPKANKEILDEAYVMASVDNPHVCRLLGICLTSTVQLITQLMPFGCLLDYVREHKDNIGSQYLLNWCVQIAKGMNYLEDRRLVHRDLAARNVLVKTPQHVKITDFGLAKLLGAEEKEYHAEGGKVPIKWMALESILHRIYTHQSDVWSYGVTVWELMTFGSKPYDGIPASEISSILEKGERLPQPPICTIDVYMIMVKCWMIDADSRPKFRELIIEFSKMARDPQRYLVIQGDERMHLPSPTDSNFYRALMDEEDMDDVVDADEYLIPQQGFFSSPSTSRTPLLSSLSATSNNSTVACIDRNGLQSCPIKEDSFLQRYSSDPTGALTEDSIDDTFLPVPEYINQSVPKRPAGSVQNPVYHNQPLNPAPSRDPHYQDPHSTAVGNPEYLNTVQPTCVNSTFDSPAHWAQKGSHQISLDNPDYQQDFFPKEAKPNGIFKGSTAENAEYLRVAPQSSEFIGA
PROCEDURE_DETAILS: Kinase inhibition assay (33P transfer), EGFR
Format: biochemical
CONDITION_CONTEXT: Table 2, kinase inhibition class; read-out: EGFR-1
pIC50: −log10 of the molar value.
OBSERVABLE: pIC50

Use the examples below as a reference point.
1) COc1cc(Nc2ncnc(-c3ccnc(N4CCCCC4)c3)n2)cc(OC)c1OC    < 4.97
2) COc1cc(Nc2ncnc(Nc3cccc(O)c3)n2)cc(OC)c1OC    > 5.97
3) NC(=O)c1cccc(Nc2ncnc(-c3ccccc3)n2)c1    < 4.81
4) COc1cc(Nc2ncnc(N[C@H]3CCCc4ccccc43)n2)cc(OC)c1OC    4.96 to 5.07
5) COc1ccc(Nc2ncnc(Nc3cc(OC)c(OC)c(OC)c3)n2)cc1O    > 6.00

q: For EGFR (Homo sapiens, UniProt P00533), give pIC50 of the listed compound: `CCN(CC)CCOc1ccc(Nc2ncnc(-n3c(N)nc4ccccc43)n2)cc1OC`
a: < 5.00

q: For EGFR (Homo sapiens, UniProt P00533), give pIC50 of the listed compound: `COc1cc(Nc2ncnc(Nc3ccc4c(c3)OCO4)n2)cc(OC)c1OC`
a: 5.22 to 6.00

q: For EGFR (Homo sapiens, UniProt P00533), give pIC50 of the listed compound: `Nc1nc2ccccc2n1-c1ncnc(Nc2ccc(Cl)c(Cl)c2)n1`
a: 5.19 to 5.97

q: For EGFR (Homo sapiens, UniProt P00533), give pIC50 of the listed compound: `COc1cccc(Nc2ncnc(Nc3cc(OC)c(OC)c(OC)c3)n2)c1`
a: 5.20 to 5.98

====

The entries below come with measured pIC50 values attached.
SUBJECT_OF_TEST: Kdr (Homo sapiens)
Construct: Kinases are expressed as either kinase domains or full length constructs; made in house
Sequence (P35968 20-1356, species assumed): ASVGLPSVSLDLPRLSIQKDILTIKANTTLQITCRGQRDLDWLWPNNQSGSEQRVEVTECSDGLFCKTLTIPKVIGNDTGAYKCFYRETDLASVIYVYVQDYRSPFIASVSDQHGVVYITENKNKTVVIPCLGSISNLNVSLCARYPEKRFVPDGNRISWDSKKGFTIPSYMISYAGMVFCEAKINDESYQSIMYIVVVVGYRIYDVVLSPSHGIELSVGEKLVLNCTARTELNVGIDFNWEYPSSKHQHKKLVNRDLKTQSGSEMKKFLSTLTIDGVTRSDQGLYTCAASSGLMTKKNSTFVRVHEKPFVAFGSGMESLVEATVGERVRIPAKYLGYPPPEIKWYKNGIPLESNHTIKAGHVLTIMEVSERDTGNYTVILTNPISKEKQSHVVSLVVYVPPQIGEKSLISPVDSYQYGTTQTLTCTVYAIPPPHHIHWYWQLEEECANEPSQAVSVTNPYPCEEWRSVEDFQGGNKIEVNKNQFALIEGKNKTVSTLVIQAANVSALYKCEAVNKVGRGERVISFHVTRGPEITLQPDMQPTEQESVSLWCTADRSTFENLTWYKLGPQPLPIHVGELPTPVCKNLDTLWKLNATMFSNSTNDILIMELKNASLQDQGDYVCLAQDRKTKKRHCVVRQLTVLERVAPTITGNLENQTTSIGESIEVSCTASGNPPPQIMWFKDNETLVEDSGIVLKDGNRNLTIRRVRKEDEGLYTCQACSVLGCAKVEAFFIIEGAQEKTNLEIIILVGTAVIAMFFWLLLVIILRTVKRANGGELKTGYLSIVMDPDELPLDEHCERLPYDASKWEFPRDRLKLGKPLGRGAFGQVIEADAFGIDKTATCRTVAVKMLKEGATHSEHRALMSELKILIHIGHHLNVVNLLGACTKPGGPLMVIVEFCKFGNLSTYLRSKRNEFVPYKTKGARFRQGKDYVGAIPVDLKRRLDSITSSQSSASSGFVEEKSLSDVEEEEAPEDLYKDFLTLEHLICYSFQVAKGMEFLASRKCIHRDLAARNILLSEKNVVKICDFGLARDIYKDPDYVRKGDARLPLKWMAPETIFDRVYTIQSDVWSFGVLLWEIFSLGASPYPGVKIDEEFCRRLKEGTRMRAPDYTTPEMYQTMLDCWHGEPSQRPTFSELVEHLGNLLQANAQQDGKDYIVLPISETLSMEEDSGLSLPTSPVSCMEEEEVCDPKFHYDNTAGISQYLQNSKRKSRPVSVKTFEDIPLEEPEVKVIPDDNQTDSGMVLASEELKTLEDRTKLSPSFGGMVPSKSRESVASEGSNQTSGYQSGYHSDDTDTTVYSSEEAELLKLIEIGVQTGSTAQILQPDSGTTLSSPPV
PROCEDURE_DETAILS: Kinase inhibition assay (33P transfer), Kdr
Format: biochemical
CONDITION_CONTEXT: Table 3; read-out: KDR-1
pIC50: −log10 of the molar value.

1) COc1cc(Nc2ncnc(-c3ccc(F)cc3)n2)cc(OC)c1OC    4.90 to 5.01
2) COc1ccc(Nc2ncnc(N(C/C=C/c3ccccc3)c3ccc(Cl)cc3)n2)cc1OC    5.30 to 6.07
3) COc1cc(Nc2ncnc(-c3ccnc(NCCCN)c3)n2)cc(OC)c1OC    < 4.96
4) FC(F)C(F)(F)Oc1cccc(Nc2ncnc(-c3cccs3)n2)c1    < 4.92
5) c1csc(-c2ncnc(Nc3ccc(N4CCOCC4)cc3)n2)c1    4.88 to 4.99

q: // fetch pIC50 given entry `COc1cc(Nc2ncnc(N3CCN(c4ccccn4)CC3)n2)cc(OC)c1OC`
a: 5.25 to 6.02

q: // fetch pIC50 given entry `COc1cc(Nc2ncnc(-c3ccc(C)cc3)n2)cc(OC)c1OC`
a: 5.17 to 5.94

q: // fetch pIC50 given entry `COc1cc(Nc2ncnc(-c3cc4ccccc4s3)n2)cc(OC)c1OC`
a: < 4.94

q: // fetch pIC50 given entry `COc1cc(Nc2ncnc(-n3ccc4cc(OCc5ccccc5)ccc43)n2)cc(OC)c1OC`
a: 5.14 to 5.30

Ref: patent US7074789B2
